Attribution: ChEMBL document CHEMBL1138915

- experimental-target: Adenosine receptor A1 (Homo sapiens)
- method-summary: Displacement of [3H]DPCPX from human adenosine A1 receptor expressed in CHO cells
- Format: cell-based
- Design: concentration or dose not given beside the values
- test-parameters: concentration not given here
parameter: inhibition (%)

> print(dat)
                                 mol.smiles  endpoint.result
1  O=C(Nc1cccnc1)Nc1nc2nn(CCOCc3ccccc3)cc2c2nc(-c3ccco3)nn12               85
2  O=C(Nc1ccncc1)Nc1nc2nn(CCO)cc2c2nc(-c3ccco3)nn12               74
3  O=C(Nc1cccnc1)Nc1nc2nn(CCO)cc2c2nc(-c3ccco3)nn12               92
4  O=C(Nc1ccncc1)Nc1nc2nn(CCOCc3ccccc3)cc2c2nc(-c3ccco3)nn12               71
5  O=C(Nc1ccncc1)Nc1nc2nn(CCCOCc3ccccc3)cc2c2nc(-c3ccco3)nn12               74
